Each entry below carries its recorded pIC50.
# System: MT4
# test details: Antiviral activity against PI resistant virus D545701 was determined in MT-4 cell line
# Format: functional, cell-based
# assay conditions: Homo sapiens
pIC50: −log10 of the molar value.
assay endpoint: pIC50

>>> result_number("CNC(=O)NCCCC(C)(C)CN(C[C@@H](O)[C@H](Cc1ccccc1)NC(=O)O[C@H]1CO[C@H]2OCC[C@H]21)S(=O)(=O)c1ccc2c(c1)OCO2")
6.70
>>> result_number("COC(=O)NCCC(C)(C)CN(C[C@@H](O)[C@H](Cc1ccccc1)NC(=O)O[C@H]1CO[C@H]2OCC[C@H]21)S(=O)(=O)c1ccc2c(c1)OCO2")
7.40
>>> result_number("COC(=O)NCCCCCC(C)(C)CN(C[C@@H](O)[C@H](Cc1ccccc1)NC(=O)O[C@H]1CO[C@H]2OCC[C@H]21)S(=O)(=O)c1ccc2c(c1)OCO2")
7.19
>>> result_number("COC(=O)NCCCC(C)(C)CN(C[C@@H](O)[C@H](Cc1ccccc1)NC(=O)O[C@H]1CO[C@H]2OCC[C@H]21)S(=O)(=O)c1ccc2c(c1)OCO2")
7.18

---

# Test system: MT4
# test details: Antiviral activity against PI resistant virus D545701 was determined in MT-4 cell line
# Type: functional, cell-based
# assay conditions: Homo sapiens
pIC50: −log10 of the molar value.
assay endpoint: pIC50

>>> result_number("COC(=O)NCCCC(C)(C)CN(C[C@@H](O)[C@H](Cc1ccccc1)NC(=O)O[C@H]1CO[C@H]2OCC[C@H]21)S(=O)(=O)c1cccc(N)c1")
7.00
>>> result_number("CC(C)(C)NC(=O)[C@@H]1CN(Cc2cccnc2)CCN1C[C@@H](O)C[C@@H](Cc1ccccc1)C(=O)N[C@H]1c2ccccc2C[C@H]1O")
6.36
>>> result_number("CC(C)(CCCNS(C)(=O)=O)CN(C[C@@H](O)[C@H](Cc1ccccc1)NC(=O)O[C@H]1CO[C@H]2OCC[C@H]21)S(=O)(=O)c1ccc2c(c1)OCO2")
6.82
>>> result_number("COC(=O)NCCCCC(C)(C)CN(C[C@@H](O)[C@H](Cc1ccccc1)NC(=O)O[C@H]1CO[C@H]2OCC[C@H]21)S(=O)(=O)c1ccc2c(c1)OCO2")
8.04
>>> result_number("CC(=O)NCCCC(C)(C)CN(C[C@@H](O)[C@H](Cc1ccccc1)NC(=O)O[C@H]1CO[C@H]2OCC[C@H]21)S(=O)(=O)c1ccc2c(c1)OCO2")
6.92

---

# Test system: MT4
# test details: Antiviral activity against wild-type HIV virus (HXB2) was determined in MT-4 cell line
# Type: functional, cell-based
# assay conditions: Homo sapiens
pIC50: −log10 of the molar value.
assay endpoint: pIC50

>>> result_number("COC(=O)NCCCCCC(C)(C)CN(C[C@@H](O)[C@H](Cc1ccccc1)NC(=O)O[C@H]1CO[C@H]2OCC[C@H]21)S(=O)(=O)c1ccc2c(c1)OCO2")
8.26
>>> result_number("CC(C)(CCCNS(C)(=O)=O)CN(C[C@@H](O)[C@H](Cc1ccccc1)NC(=O)O[C@H]1CO[C@H]2OCC[C@H]21)S(=O)(=O)c1ccc2c(c1)OCO2")
7.48
>>> result_number("CC(C)(C)NC(=O)[C@@H]1CN(Cc2cccnc2)CCN1C[C@@H](O)C[C@@H](Cc1ccccc1)C(=O)N[C@H]1c2ccccc2C[C@H]1O")
7.30
>>> result_number("COC(=O)NCCCCC(C)(C)CN(C[C@@H](O)[C@H](Cc1ccccc1)NC(=O)O[C@H]1CO[C@H]2OCC[C@H]21)S(=O)(=O)c1ccc2c(c1)OCO2")
8.80
>>> result_number("COC(=O)NCCCC(C)(C)CN(C[C@@H](O)[C@H](Cc1ccccc1)NC(=O)O[C@H]1CO[C@H]2OCC[C@H]21)S(=O)(=O)c1cccc(N)c1")
7.74
